Entries and their measured composite z-score follow.
Tested on: Plasmodium falciparum Sir2 (PF13_0152, Sir2A)
Experiment: pfSir2 binders on small-molecule microarrays, primary screen, biochemical, small-molecule microarray, 635 nm fluorescence (AID 1098);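 further: score merges spot fluorescence intensity with its signal-to-noise ratio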
Settings: small-molecule microarray binding, fluorescence 635 nm; higher = more signal

[
  {
    "smiles.notation": "Cc1cc2c(c(=O)o1)[C@@H](O)[C@H]1O[C@H]1C2=O",
    "test.system": "Plasmodium falciparum Sir2 (PF13_0152, Sir2A)",
    "composite z-score": 0.338
  },
  {
    "smiles.notation": "CC(CCN1CCCCc2nc(C)c(C)cc21)=NOC[C@@H](O)COCc1ccco1",
    "test.system": "Plasmodium falciparum Sir2 (PF13_0152, Sir2A)",
    "composite z-score": 1.19
  },
  {
    "smiles.notation": "COc1ccc(O[C@H]2C=C[C@@H](c3ccccc3)O[C@@H]2CON=CC[C@@H]2C=C[C@H](OC(C)=O)[C@@H](COC(C)=O)O2)cc1",
    "test.system": "Plasmodium falciparum Sir2 (PF13_0152, Sir2A)",
    "composite z-score": 0.277
  },
  {
    "smiles.notation": "COC(=O)[C@@H]1CC[C@H](C)[C@@H](c2ccc(C)cc2)N1C(=O)c1ccc(C=NO[C@@H](C)c2cn([C@H](CO)Cc3ccccc3)nn2)cc1",
    "test.system": "Plasmodium falciparum Sir2 (PF13_0152, Sir2A)",
    "composite z-score": 1.03
  },
  {
    "smiles.notation": "CCOC(=O)NN=C1C[C@@H](O)[C@@H](O)[C@@H]2[C@@H]3C(=O)N(Cc4ccccc4)C(=O)[C@@H]3CC[C@H]12",
    "test.system": "Plasmodium falciparum Sir2 (PF13_0152, Sir2A)",
    "composite z-score": 0.245
  },
  {
    "smiles.notation": "CON=Cc1ccc(C(=O)N2[C@H](c3ccc(C)cc3)[C@@H](C)CC[C@H]2C(=O)OC)cc1",
    "test.system": "Plasmodium falciparum Sir2 (PF13_0152, Sir2A)",
    "composite z-score": 0.365
  },
  {
    "smiles.notation": "CO[C@H]1COC(=O)CC=C[C@@H](C)[C@H](OC)COC(=O)[C@@H]2CCCN2C(=O)CC=C[C@@H]1C",
    "test.system": "Plasmodium falciparum Sir2 (PF13_0152, Sir2A)",
    "composite z-score": 0.686
  },
  {
    "smiles.notation": "CCN1C(=O)[C@H]2[C@H]3[C@H](O)[C@H](O)CC(=NOCC(C)C)[C@@H]3CC[C@H]2C1=O",
    "test.system": "Plasmodium falciparum Sir2 (PF13_0152, Sir2A)",
    "composite z-score": 0.85
  }
]

====

Assay: E. coli acrAB mutant growth effects, primary screen, E. coli filamentation inducers, strain DRC39, OD650, 48 h (AID 1179);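 further: screen aims at cell division blockers that make cells filament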
Details: E. coli DRC39 delta-acrAB growth, higher = more signal, called active from +8 up or from −8 down
Kindly return rule met if reported z-score is no lower than -0.07; return rule not met if it is lower.

[
  {
    "compound": "COC(=O)CC=C[C@@H](C)[C@@H](C=NO[C@H](C)c1cn([C@@H]2COC[C@H]2O)nn1)NS(=O)(=O)c1ccc(C)cc1",
    "class.assignment": "rule met"
  },
  {
    "compound": "CCCCC#C[C@@H]1C=C[C@H](Oc2ccc(C(=O)OC)cc2)[C@@H](COC(=O)OCC)O1",
    "class.assignment": "rule not met"
  },
  {
    "compound": "O=C1[C@H]2[C@H]3[C@H](O)[C@H](O)CC(=NOCc4ccccc4)[C@H]3CC[C@H]2C(=O)N1Cc1ccc2c(c1)OCO2",
    "class.assignment": "rule not met"
  },
  {
    "compound": "C[n+]1ccc(-c2ccc(CO)cc2)cc1",
    "class.assignment": "rule not met"
  },
  {
    "compound": "CO[C@H]1COC(=O)[C@@H](C)COC(=O)[C@@H](OCc2ccccc2)C=C[C@@H]1C",
    "class.assignment": "rule not met"
  },
  {
    "compound": "C[C@@H]1NC(=O)[C@@H](C)COC(=O)[C@H](C)NC(=O)[C@@H](C)COC1=O",
    "class.assignment": "rule not met"
  },
  {
    "compound": "CCN1C(=O)[C@H]2[C@H]3[C@H](O)[C@H](O)CC(=NO[C@@H](C)c4cn([C@H](CO)Cc5ccccc5)nn4)[C@@H]3CC[C@H]2C1=O",
    "class.assignment": "rule not met"
  },
  {
    "compound": "CCOC(=O)[C@H](CC(C)C)NC(=O)CCC1CC(OC(=O)NCCc2ccc(F)cc2)CC2(CCCC(COC(=O)NCC3CCCCC3)O2)O1 (stereo partly specified)",
    "class.assignment": "rule not met"
  },
  {
    "compound": "CCOC(=O)[C@H](CC(C)C)NC(=O)CCC1CC(OC(=O)NCc2ccc3c(c2)OCO3)CC2(CCCC(COC(=O)NCC3CCCCC3)O2)O1 (stereo partly specified)",
    "class.assignment": "rule met"
  },
  {
    "compound": "C#CCCCON=C1C[C@@H](O)[C@@H](O)[C@@H]2[C@@H]3C(=O)N(CCC(=O)OCC)C(=O)[C@@H]3CC[C@H]12",
    "class.assignment": "rule met"
  },
  {
    "compound": "CO[C@@H]1COC(=O)CC=C[C@H](C)[C@H](OC)COC(=O)[C@H](C)NC(=O)CC=C[C@H]1C",
    "class.assignment": "rule not met"
  },
  {
    "compound": "CCOC(=O)CCN1C(=O)[C@H]2[C@H]3[C@H](O)[C@H](O)CC(=NOCC(C)C)[C@H]3CC[C@H]2C1=O",
    "class.assignment": "rule met"
  },
  {
    "compound": "CCCNC(=O)OC[C@H]1O[C@H](CCON=C(C)C)C=C[C@@H]1Oc1ccc(OC)cc1",
    "class.assignment": "rule not met"
  },
  {
    "compound": "COCOc1ccc(Br)cc1C(=O)[C@@H]1O[C@H]1c1cccc(OC)c1",
    "class.assignment": "rule met"
  },
  {
    "compound": "C[C@@H]1CC[C@H]2C(=O)O[C@@H](Cc3ccccc3)CN2[C@H]1c1ccc(Br)cc1",
    "class.assignment": "rule not met"
  },
  {
    "compound": "Cc1ccc(S(=O)(=O)OC[C@H]2CN3[C@H](c4ccc(Br)cc4)[C@@H](C)CC[C@H]3C(=O)O2)cc1",
    "class.assignment": "rule met"
  }
]

====

Target: Torsin-1A (Homo sapiens)
Assay: small-molecule binders of mutant TOR1A in lysate, primary screen, cell lysate, small-molecule microarray, COS7 lysate, 635/667 nm fluorescence (AID 1150);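 further: score pools 667 nm emission and signal to noise measuring lysate protein binding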
Conditions: COS7 hTOR1A mutant lysate, 635 nm fluorescence, higher = more signal
Label TRUE for high-side composite z-score (at or above 0.5) and FALSE for low-side composite z-score (below it).

[
  {
    "molecule": "COC(=O)C1=C(C)N(Cc2ccccc2)[C@]23O[C@](C(=O)OC)(C(=O)N2[C@@H]1c1ccccc1)C(C(=O)OC)=C3C(=O)OC",
    "class.assignment": "FALSE"
  },
  {
    "molecule": "CCOC(=O)[C@H](CC(C)C)NC(=O)CCC1CC(OC(=O)NCc2ccc3c(c2)OCO3)CC2(CCCC(COC(=O)NCC(c3ccccc3)c3ccccc3)O2)O1 (stereo not given in full)",
    "class.assignment": "FALSE"
  },
  {
    "molecule": "CC(C)CON=C1C[C@@H](O)[C@@H](O)[C@@H]2[C@@H]3C(=O)N(Cc4ccc5c(c4)OCO5)C(=O)[C@@H]3CC[C@H]12",
    "class.assignment": "TRUE"
  },
  {
    "molecule": "CCOC(=O)CCN1C(=O)[C@H]2[C@H]3[C@H](O)[C@H](O)CC(=NOCc4ccccc4)[C@H]3CC[C@H]2C1=O",
    "class.assignment": "FALSE"
  },
  {
    "molecule": "CO[C@H](C1CCCCC1)[C@H](C)C=CCC(=O)OCCCc1ccccc1",
    "class.assignment": "FALSE"
  },
  {
    "molecule": "COc1ccc(O[C@@H]2[C@H](O)CO[C@H]2C=Cc2ccccc2)cc1",
    "class.assignment": "FALSE"
  },
  {
    "molecule": "COCOc1ccc(Br)cc1C(=O)[C@@H]1O[C@H]1c1cccc(OC)c1",
    "class.assignment": "FALSE"
  },
  {
    "molecule": "CCOC(=O)NN=C1C[C@@H](O)[C@@H](O)[C@@H]2[C@@H]3C(=O)N(c4cccc(Oc5ccccc5)c4)C(=O)[C@@H]3CC[C@H]12",
    "class.assignment": "FALSE"
  },
  {
    "molecule": "CO[C@@H]1C=CCC(=O)N[C@@H](C)C(=O)OC[C@@H](OC)[C@H](C)CCCC(=O)OC[C@H]1C",
    "class.assignment": "TRUE"
  },
  {
    "molecule": "O=C1[C@H]2[C@H]3[C@H](O)[C@H](O)CC(=NOC[C@@H](O)COCc4ccco4)[C@@H]3CC[C@H]2C(=O)N1C[C@@H]1CCCO1",
    "class.assignment": "TRUE"
  },
  {
    "molecule": "COC(=O)CC=C[C@@H](C)[C@@H](C=NO[C@@H](C)c1cc(-c2c(C)cc(C)cc2C)no1)NS(=O)(=O)c1ccc(C)cc1",
    "class.assignment": "FALSE"
  },
  {
    "molecule": "CCOC(=O)[C@H](Cc1ccccc1)NC(=O)CCC1CC(OC(=O)NCCc2ccc(F)cc2)CC2(CCCC(COC(=O)NCC3CCCCC3)O2)O1 (stereo not given in full)",
    "class.assignment": "FALSE"
  },
  {
    "molecule": "C[C@@H](c1ccccc1)N1C(=O)[C@H]2[C@H]3[C@H](O)[C@H](O)CC(=NO[C@@H]4O[C@H](CO)[C@@H](O)[C@H](O)[C@H]4O)[C@@H]3CC[C@H]2C1=O",
    "class.assignment": "TRUE"
  },
  {
    "molecule": "Cc1ccc(S(=O)(=O)NC(CCc2ccccc2)CC(=O)C(C)(C)C)cc1 (stereo not given)",
    "class.assignment": "FALSE"
  },
  {
    "molecule": "CO[C@@H]1COC(=O)CC=C[C@H](C)[C@H](OC)COC(=O)[C@H](C)NC(=O)CC=C[C@H]1C",
    "class.assignment": "TRUE"
  }
]

Data provenance: PubChem BioAssay
